Provenance of the data: ChEMBL document CHEMBL1201862

Recorded GI50 by entry
System: NCI-H522
Assay: NCI tumour cell line growth inhibition, 48 h
Calls of active or inactive are those of the source. No stated cut-off is given here; in the data, active = GI50 up to about 1.1 µM and inactive = higher.

Some compounds with known GI50 results, for comparison:
compound | GI50
C[C@]12CC[C@H](O)CC1=CC[C@@H]1[C@@H]2CC[C@]2(C)C(=N/O)/C(=C/c3ccc([N+](=O)[O-])cc3)C[C@@H]12 | 3.18 µM (inactive)
O=C(/C=C/c1cccs1)c1cccc(C(=O)/C=C/c2cccs2)n1 | 22.1 µM (inactive)

Provide only the value of recorded GI50 for "COc1ccc(C2=NNC(=O)c3ccccc3N2c2nc(-c3cccs3)nc3ccc(Br)cc23)cc1"
64.9 µM (inactive)

Look up and state reported GI50 for COc1cc(Br)c(CC2C3=C(CCN2C(=O)C2CCC2)CC2(CC3)OCCO2)cc1O (configuration not stated)
27.7 µM (inactive)

----------
System: COLO 205
Assay: NCI tumour cell line growth inhibition, 48 h
Activity calls are given as the source filed them. Rule as the data show it: active = GI50 up to about 1.1 µM and inactive = higher.
outcome measure: GI50

molecule | GI50
CC(=O)OCc1c(C)c2ccccc2n1C(C)=O | 44.2 µM (inactive)

Could you now look at the following molecule, please?
Under COLO 205, report GI50 for COC1CC(OC(=O)c2ccccc2)C(OC(=O)c2ccccc2)C(C)O1 (stereo not given)
> 100 µM (inactive)

----------
Tested on: EKVX
Experiment: NCI tumour cell line growth inhibition, 48 h
Activity calls are given as the source filed them. No stated cut-off is given here; in the data, active = GI50 up to about 1.1 µM and inactive = higher.
outcome measure: GI50

molecule | outcome measure | reported result
CCc1nc(N)nc(N)c1-c1ccc(Cl)c(N=[N+]=[N-])c1 | GI50 | 5.21 µM (inactive)
Nc1nc2c(C(=O)NCc3cccs3)nnn2c2cccc(Cl)c12 | GI50 | 57.8 µM (inactive)
CC(=O)OCCOCNC(=S)N/N=C(\C)c1cnccn1 | GI50 | 22.3 µM (inactive)
N#C/C(=C\c1cc(O)cc(O)c1)C(N)=O | GI50 | > 100 µM (inactive)
O=C(O)c1cc(C(=O)O)nc(C(=O)O)c1 | GI50 | > 100 µM (inactive)
CN1CCC23c4c5ccc(O)c4OC2c2[nH]c4ccccc4c2CC3(O)C1C5 (stereo not given) | GI50 | 92.9 µM (inactive)

Specify GI50 for "Cc1ccc(C(=O)NC2CCCCC2)cc1/N=N/N(C)C" , system EKVX.
> 100 µM (inactive)

Provide GI50, system EKVX, entry "CN(C)c1nc2oc(-c3ccccc3)c(-c3ccccc3)c2c2nnnn12"
> 100 µM (inactive)

Would you please give the reported GI50 of CC(C)C1OC(/C=C/c2ccccc2)OCC1(C)C (stereo not given) with EKVX?
27.5 µM (inactive)

Give GI50; test system EKVX; molecule "COc1ccc(CCn2cncn2)cc1"
> 100 µM (inactive)

Under EKVX, report GI50 for CC(C)C1(NC(=O)C2CC3c4cccc5[nH]cc(c45)CC3N(C)C2)OC2(O)C3CCCN3C(=O)C(Cc3ccccc3)N2C1=O (stereo not given)
30.3 µM (inactive)

State the measured GI50 (EKVX) of COC(=O)c1ccccc1C1CN=NC12Cc1c(ccc(C)c1C)C2=O (stereo not given)
> 100 µM (inactive)

Provide EKVX GI50 reading for Clc1ncnc2c1nc(C#Cc1ccccc1)n2C1CCCCO1 (stereo not given) .
1.95 µM (inactive)

# lookup: EKVX GI50, key = "Cc1cccc(/C=N/NC(=S)NCCc2ccccn2)n1"
38.2 µM (inactive)

Name the recorded GI50 of "CC(=O)NNc1nc(C)c(C(=O)NNC(=O)C(=O)Nc2ccc([N+](=O)[O-])cc2C#N)s1" , assay system EKVX.
96.4 µM (inactive)

Using EKVX as the test system, report measured GI50 of O=C1CCC2(c3ccccc3)Nc3ccccc3N12 (stereo not given) .
> 100 µM (inactive)

For EKVX, give the measured GI50 of the entry COC(=O)C1=C(C(=O)OC)N(c2ccncc2)C(c2ccco2)=CC1c1ccccc1[N+](=O)[O-] (stereo not given)
6.59 µM (inactive)

Lab note: record GI50 of "CCCCN(CCCC)C(=O)C(=O)CC(=O)c1ccc(Br)cc1" tested on EKVX.
> 100 µM (inactive)

Identify measured GI50 obtained with EKVX for O=C1C(Cl)N(c2ccccc2[N+](=O)[O-])C1c1c[nH]c2ccccc12 (stereo not given) .
83.6 µM (inactive)

Please report GI50 with EKVX for item "Clc1ccc(CCNCCNC2(c3cc4ccccc4s3)CCCCC2)cc1Cl" .
2.08 µM (inactive)
